test_description: Toxicity in Crl:WI(Han) rat assessed as drug tolerability dose at 100 to 1000 mg/kg/day, po via gavage for 7 days
Type: organism-based
assay_conditions: in vivo, read-out: Activity
quantity: MTD at 168 h

compound_string=C[C@H]1CN(c2n[nH]c3nc(N[C@H]4CC[C@H](NS(=O)(=O)CCC(F)(F)F)CC4)ncc23)CCO1 quantity="MTD at 168 h" recorded_measurement="100 to 1000 mg/kg"

API: the following record is the query input.
[ask] Value lookup for MTD at 168 h; key = COc1ccccc1-c1n[nH]c2nc(N[C@H]3CC[C@H](NS(=O)(=O)CCC(F)(F)F)CC3)nc(OC)c12
[reply] 100 to 300 mg/kg

---

Measured pKa values are reported for all entries that follow.
test_description: Dissociation constant, pKa of the compound by UV-spectroscopy
Type: physicochemical
Respond with the number and no other words.

Check out these entries, answers already filled in.
compound_string=O=S(=O)(CCC(F)(F)F)N[C@H]1CC[C@H](Nc2ncc3c(-c4ccccn4)n[nH]c3n2)CC1 recorded_measurement=3.2
compound_string=COc1ccccc1-c1n[nH]c2nc(N[C@H]3CC[C@H](NS(=O)(=O)CCC(F)(F)F)CC3)nc(OC)c12 recorded_measurement=4.1

# evaluate next
[ask] For the compound O=S(=O)(CCC(F)(F)F)N[C@H]1CC[C@H](Nc2ncc3c(N4CCOCC4)n[nH]c3n2)CC1 , what pKa is on record?
[reply] 3.7

---

Each item that follows carries a reported CLH.
test_description: Intrinsic clearance in CD1 mouse liver microsomes at 0.5 uM after 3 to 30 mins in presence of NADPH by UPLC-MS/MS analysis
Assay type: ADME, Microsome
Please reply with the bare figure in mL/min/g and do not write the unit itself.

Some molecules with recorded CLH:
compound_string=COc1ccccc1-c1n[nH]c2nc(N[C@H]3CC[C@H](NS(=O)(=O)CCC(F)(F)F)CC3)nc(OC)c12 quantity=CLH unit_info=mL/min/g recorded_measurement=1.1
compound_string=CC(C)CS(=O)(=O)N[C@H]1CC[C@H](Nc2ncc3c(N4CCOCC4)n[nH]c3n2)CC1 quantity=CLH unit_info=mL/min/g recorded_measurement=0.9
compound_string=CC(C)Cc1n[nH]c2nc(N[C@H]3CC[C@H](NC(=O)Cc4ccccc4)CC3)ncc12 quantity=CLH unit_info=mL/min/g recorded_measurement=9.5

Note: attention shifts to another entry.
[ask] Recorded CLH for O=S(=O)(CCC(F)(F)F)N[C@H]1CC[C@H](Nc2ncc3c(-c4ccccn4)n[nH]c3n2)CC1 , please?
[reply] 0.6

---

test_description: Kinetic aqueous solubility of the compound in phosphate buffer at pH 7.4 by CLND assay
Assay type: physicochemical
assay_conditions: phosphate buffer, read-out: Kinetic_solubility
Outcome: 1 (yes) for solubility kinetic of at least 300 µM; 0 (no) for anything lower.

Solved entries:
molecule=COc1nc(N[C@H]2CC[C@H](NS(=O)(=O)CCC(F)(F)F)CC2)nc2[nH]nc(N3CCOCC3)c12 label="1 (yes)"
molecule=C[C@@H]1CN(c2n[nH]c3nc(N[C@H]4CC[C@H](NS(=O)(=O)CCC(F)(F)F)CC4)ncc23)CCO1 label="0 (no)"

[ask] Determine whether this molecule has solubility kinetic no lower than 300 µM: CC(C)CS(=O)(=O)N[C@H]1CC[C@H](Nc2ncc3c(N4CCOCC4)n[nH]c3n2)CC1
[reply] 1 (yes)

[ask] Textbook exercise: given the entry COc1nc(N[C@H]2CC[C@H](NS(=O)(=O)CC3CCCO3)CC2)nc2[nH]nc(N3CCOCC3)c12 (stereo in doubt; 34) , state whether its solubility kinetic is greater than or equal to 300 µM.
[reply] 1 (yes)

[ask] Say whether O=S(=O)(CCC(F)(F)F)N[C@H]1CC[C@H](Nc2ncc3c(N4CCCC4)n[nH]c3n2)CC1 shows solubility kinetic of 300 µM or more.
[reply] 0 (no)

[ask] Check this molecule for solubility kinetic at or above 300 µM: O=S(=O)(CCC(F)(F)F)N[C@H]1CC[C@H](Nc2ncc3c(N4CCOCC4)n[nH]c3n2)CC1
[reply] 0 (no)

[ask] hey, is solubility kinetic for this one >= 300 µM? O=S(=O)(CCC(F)(F)F)N[C@H]1CC[C@H](Nc2ncc3c(-c4ccccn4)n[nH]c3n2)CC1
[reply] 0 (no)

[ask] Answer whether solubility kinetic of CC1COCCN1c1n[nH]c2nc(N[C@H]3CC[C@H](NS(=O)(=O)CCC(F)(F)F)CC3)ncc12 (stereo in doubt; 36) is greater than or equal to 300 µM.
[reply] 1 (yes)

---

A collection of compounds and their measured chromatographic logD
test_description: Lipophilicity, log D of the compound at pH 7.4 assessed as chromatographic hydrophobicity index
Type: physicochemical
assay_conditions: buffer
Lab note: jot down the number only; don't add units.

compound_string=O=S(=O)(CCC(F)(F)F)N[C@H]1CC[C@H](Nc2ncc3c(-c4cncnc4)n[nH]c3n2)CC1 quantity="chromatographic logD" recorded_measurement=3
compound_string=O=S(=O)(CCC(F)(F)F)N[C@H]1CC[C@H](Nc2ncc3c(N4CCOCC4)n[nH]c3n2)CC1 quantity="chromatographic logD" recorded_measurement=3
compound_string=O=S(=O)(CCC(F)(F)F)N[C@H]1CC[C@H](Nc2ncc3c(N4CCCC4)n[nH]c3n2)CC1 quantity="chromatographic logD" recorded_measurement=4

[ask] Look up chromatographic logD for this compound: O=S(=O)(CCC(F)(F)F)N[C@H]1CC[C@H](Nc2ncc3c(N4CCCCC4)n[nH]c3n2)CC1
[reply] 4.4

[ask] Reported chromatographic logD, compound O=S(=O)(CCC(F)(F)F)N[C@H]1CC[C@H](Nc2ncc3c(C4CCOCC4)n[nH]c3n2)CC1 : ____
[reply] 3.2

[ask] Could you share which chromatographic logD value was measured for O=S(=O)(CCC(F)(F)F)N[C@H]1CC[C@H](Nc2ncc3c(N4CCNCC4)n[nH]c3n2)CC1 ?
[reply] 1.6

---

test_description: Permeability of the compound by artificial membrane permeability assay
Assay type: ADME
assay_conditions: PAMPA; read-out: permeability
quantity: Papp (×10⁻⁶ cm/s)
Answer with a number only, understood to be in ×10⁻⁶ cm/s.

[ask] Tell me the measured Papp of O=S(=O)(CCC(F)(F)F)N[C@H]1CC[C@H](Nc2ncc3c(-c4ccccn4)n[nH]c3n2)CC1 , please.
[reply] 44

---

test_description: Mean AUClast in Sprague-Dawley rat at 300 mg/kg, po measured up to 24 hrs by UPLC-MS/MS analysis
Format: ADME, organism-based
Set-up: dose 300 mg/kg, time < 24 hr, route oral
assay_conditions: in vivo
quantity: AUC(0-t) at 24 h

[ask] Consider the molecule shown here: CC(C)CS(=O)(=O)N[C@H]1CC[C@H](Nc2ncc3c(N4CCOCC4)n[nH]c3n2)CC1 What is its recorded AUC(0-t) at 24 h?
[reply] 2380 ng·h/mL

---

Recorded fraction unbound at 0.25 h, 10 ug/ml for the following molecules
test_description: Fraction unbound in human plasma at 10 ug/ml after 15 mins by UPLC-MS/MS analysis
Assay type: ADME, cell-free
Give a plain numeric answer without units written out.

compound_string=O=S(=O)(CCC(F)(F)F)N[C@H]1CC[C@H](Nc2ncc3c(-c4ccccn4)n[nH]c3n2)CC1 quantity="fraction unbound at 0.25 h, 10 ug/ml" recorded_measurement=0.08

[ask] Reported fraction unbound at 0.25 h, 10 ug/ml for CC(C)CS(=O)(=O)N[C@H]1CC[C@H](Nc2ncc3c(N4CCOCC4)n[nH]c3n2)CC1 : what is it?
[reply] 0.33

---

test_description: Cmax in BALB/c mouse at 10 mg/kg, po measured up to 24 hrs by UPLC-MS/MS analysis
Assay type: ADME, organism-based
Parameters: dose 10 mg/kg, route oral
assay_conditions: in vivo
quantity: Cmax (µg/mL)
Quick reminder: number only, in µg/mL, skip the unit.

[ask] Would you mind telling me what Cmax value was observed for O=S(=O)(CCC(F)(F)F)N[C@H]1CC[C@H](Nc2ncc3c(-c4ccccn4)n[nH]c3n2)CC1 ?
[reply] 1.91

---

List of solubility at 4 h values.
test_description: Solubility of compound in fasted simulated intestinal fluid at 1 mg after 4 hrs by HPLC-UV analysis
Assay type: physicochemical
assay_conditions: fasted simulated intestinal fluid

molecule="COc1nc(N[C@H]2CC[C@H](NS(=O)(=O)CC3CCCO3)CC2)nc2[nH]nc(N3CCOCC3)c12 (stereo in doubt; 34)" recorded_measurement="0.283 mg/mL"
molecule=C[C@@H]1CN(c2n[nH]c3nc(N[C@H]4CC[C@H](NS(=O)(=O)CCC(F)(F)F)CC4)ncc23)CCO1 recorded_measurement="0.023 mg/mL"
molecule=COc1nc(N[C@H]2CC[C@H](NS(=O)(=O)CCC(F)(F)F)CC2)nc2[nH]nc(N3CCOCC3)c12 recorded_measurement="0.053 mg/mL"
molecule=C[C@H]1CN(c2n[nH]c3nc(N[C@H]4CC[C@H](NS(=O)(=O)CCC(F)(F)F)CC4)ncc23)CCO1 recorded_measurement="0.017 to 0.064 mg/mL"
molecule=COc1ccccc1-c1n[nH]c2nc(N[C@H]3CC[C@H](NS(=O)(=O)CCC(F)(F)F)CC3)nc(OC)c12 recorded_measurement="0.025 to 0.13 mg/mL"

[ask] Param item = CC1COCCN1c1n[nH]c2nc(N[C@H]3CC[C@H](NS(=O)(=O)CCC(F)(F)F)CC3)ncc12 (stereo in doubt; 36) ; retrieve measured solubility at 4 h.
[reply] 0.088 mg/mL

[ask] For the molecule O=S(=O)(CCC(F)(F)F)N[C@H]1CC[C@H](Nc2ncc3c(-c4ccccn4)n[nH]c3n2)CC1 , what solubility at 4 h is on record?
[reply] < 0.001 mg/mL

[ask] Looking for the measured solubility at 4 h of CC(C)CS(=O)(=O)N[C@H]1CC[C@H](Nc2ncc3c(N4CCOCC4)n[nH]c3n2)CC1 , can you help?
[reply] 0.009 mg/mL

[ask] What measured solubility at 4 h goes with O=S(=O)(CCC(F)(F)F)N[C@H]1CC[C@H](Nc2ncc3c(N4CCOCC4)n[nH]c3n2)CC1 ?
[reply] 0.007 mg/mL
